Cited source for all entries: patent US20260055107A1

experimental_system: human complement Factor B protein (Homo sapiens (Human), UniProt P00751)
Sequence (P00751 26-764): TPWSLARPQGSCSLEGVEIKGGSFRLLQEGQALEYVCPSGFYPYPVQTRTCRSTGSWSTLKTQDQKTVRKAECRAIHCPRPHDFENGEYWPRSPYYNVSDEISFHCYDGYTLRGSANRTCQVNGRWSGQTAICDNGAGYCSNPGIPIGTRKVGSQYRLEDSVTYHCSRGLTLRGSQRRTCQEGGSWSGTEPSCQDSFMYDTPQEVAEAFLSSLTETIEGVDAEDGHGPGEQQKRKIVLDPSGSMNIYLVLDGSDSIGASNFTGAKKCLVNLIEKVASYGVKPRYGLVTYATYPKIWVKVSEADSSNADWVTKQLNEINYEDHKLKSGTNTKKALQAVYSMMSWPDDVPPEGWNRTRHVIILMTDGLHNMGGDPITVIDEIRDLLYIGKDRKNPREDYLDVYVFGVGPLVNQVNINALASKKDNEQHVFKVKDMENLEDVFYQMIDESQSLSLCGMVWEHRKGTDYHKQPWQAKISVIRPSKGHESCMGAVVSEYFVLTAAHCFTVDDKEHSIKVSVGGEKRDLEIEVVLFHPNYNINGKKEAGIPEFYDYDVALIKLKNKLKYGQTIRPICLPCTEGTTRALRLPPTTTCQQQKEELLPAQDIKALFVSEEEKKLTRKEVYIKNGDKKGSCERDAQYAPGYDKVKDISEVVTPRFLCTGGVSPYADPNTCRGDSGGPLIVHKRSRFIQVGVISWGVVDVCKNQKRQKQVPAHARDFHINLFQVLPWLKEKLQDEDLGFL
measured_property: Kd

Lookup: For COc1cc(C)c2[nH]ccc2c1CN1C2CCC1(c1ccc(C(=O)O)cc1)CC(C1CC1)C2 (single isomer, unassigned) , what is its reported Kd?
Found: < 100 nM

====

assay_name: Pharmacokinetic study in rats
Assay type: in vivo, Male SD rats
test_parameters: rat, IV 1 mpk
I'd appreciate it if you could supply C0 values for the items below.
Note: unit µM is implicit; provide only the numeric part.

Lookup: For COc1cc(C)c2[nH]ccc2c1CN1C2CCC1(c1ccc(C(=O)O)cc1)CC(SC)C2.O=CO (single isomer, unassigned) , what is its reported C0?
Found: 5.81

Lookup: Same again, this time with COc1cc(C)c2[nH]ccc2c1CN1C2CCC1(c1ccc(C(=O)O)cc1)CC(C1CC1)C2 (single isomer, unassigned)
Found: 6.2

====

assay_name: Pharmacokinetic study in rats
Format: in vivo, Male SD rats
test_parameters: rat, PO 10 mpk
Procedure: Male SD rats (6 to 8 weeks old, weighing 200 to 300 g) were selected. Injection administration (IV) was carried out at a dose of 1 mpk and a concentration of 0.20 mg/mL with a vehicle of 20% PEG400/10% solutol/70% water. […] Sample collection: 0.03 mL of blood samples were collected by puncture of the saphenous vein in experimental animals at each time point, and the actual blood collection time was recorded. […]
I'd appreciate it if you could supply Cmax values for the items below.
Note: unit µM is implicit; provide only the numeric part.

Lookup: For COc1cc(C)c2[nH]ccc2c1CN1C2CCC1(c1ccc(C(=O)O)cc1)CC(SC)C2.O=CO (single isomer, unassigned) , what is its reported Cmax?
Found: 9.03

Lookup: Same again, this time with COc1cc(C)c2[nH]ccc2c1CN1C2CCC1(c1ccc(C(=O)O)cc1)CC(C1CC1)C2 (single isomer, unassigned)
Found: 7.83
